- systemUnderTest: human KHK-A (Homo sapiens (Human), UniProt P50053)
- Sequence (P50053 other isoform, or with tags, fused parts or gaps): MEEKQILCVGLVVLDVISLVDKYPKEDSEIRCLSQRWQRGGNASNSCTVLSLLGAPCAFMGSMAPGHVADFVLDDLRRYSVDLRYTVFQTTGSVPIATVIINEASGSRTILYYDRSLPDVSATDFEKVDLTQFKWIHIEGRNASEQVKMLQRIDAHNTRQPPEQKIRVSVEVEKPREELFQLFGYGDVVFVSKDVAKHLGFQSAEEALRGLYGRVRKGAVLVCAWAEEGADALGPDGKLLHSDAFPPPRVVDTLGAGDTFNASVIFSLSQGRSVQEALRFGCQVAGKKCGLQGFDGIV
- experiment: KHK Biochemical Assay (IC50), ADP-Glo, KHK-A
- conditionLabel: ADP-Glo; average of at least two separate assays
Below is a list of entries, each paired with its recorded pIC50 value.
Worth noting: pIC50 values are minus log10 of concentrations stated in mol/L.

Some solved entries appear below for comparison.
What value of pIC50 has been recorded for this entry: NC1(c2ccc(-c3nc(N4CC[C@@H]4C(F)(F)F)nc4c3CCC4(F)F)s2)COC1 [Example 896]
8.68

Likewise for C[C@H]1CCN1c1nc2c(c(-c3cccc(CNC(=O)OC(C)(C)C)c3)n1)CCC2 [Example 328] ?
6.22

Subsequent entry: C[C@H]1CCN1c1nc2c(c(-c3ccc4c(c3)C(=O)NC4=O)n1)CCC2 [Example 240]
6.74

Would you kindly repeat that for C[C@H]1CCN1c1nc2c(c(-c3cccc(C(N)C(F)(F)F)c3)n1)CCC2 (some centres unmarked) [Example 246] ?
6.44

New cases:
Could you share which pIC50 value was measured for C[C@H]1CCN1c1nc2c(c(-c3cccc(S(=N)(N)=O)c3)n1)CCC2 (some centres unmarked) [Example 873] ?
7.62

Then this compound: C[C@H]1CCN1c1nc2c(c(-c3ccc(-c4ncc[nH]4)cc3)n1)CCC2 [Example 185]
7.22

What do we get for C[C@H]1CCN1c1nc2c(c(-c3cccc(S(=O)(=O)NCCO)c3)n1)CCC2 [Example 54] ?
7.38

From: patent US12410160B2
